read-out: Macrophage colony-stimulating factor (MCSF), CSF1 (gene 1435); assay: BSK_CASM3C_MCSF: BioMAP Diversity Plus: CASM3C Assay for Macrophage colony-stimulating factor (MCSF) Biomarker Activity (AID 2283044); conditions: primary human coronary artery smooth muscle cells; actives raise or lower the signal;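 note: M-CSF protein amount quantified by ELISA after 24 h exposure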
The source made the active and inactive calls. Rule for the calls: active = hit-call score of the fitted dose curve at least 0.9, where 1 is the maximum; inactive = score below 0.9.
Result category, one only: active, inactive

Molecule	Answer label
CC(C)(CO)CO	inactive
C=C1CC/C=C(\C)CC[C@@H]2[C@@H]1CC2(C)C	inactive

Q. Answer briefly: the call reported for `CC(C)CCCC(C)(C)O` in this assay.
A. inactive

Q. Please answer likewise for CC(=O)OC(C)(C)C1CC=C(C)CC1 (stereo unspecified)
A. active

Q. Also CCCCCCCC1CCCC1=O (stereo unspecified) , if possible.
A. active

Q. Another molecule to look at: `CC(=O)c1ccc(C)cc1`
A. inactive

Q. And then `O=S1(=O)CC(Cl)(Cl)C(Cl)(Cl)C1` , what is it?
A. active

Q. Same read-out for `CCCCCCCCCC(=O)OCC` ?
A. active

Q. `COC(=O)c1ccc(C(=O)OC)cc1` , same question.
A. inactive

Q. And for `NC(=O)c1c(Cl)cccc1Cl` ?
A. inactive

Q. Another molecule to check: CC(C)Cc1ccc(C(C)C(=O)O)cc1 (stereo unspecified)
A. inactive

----------
molecular target: human Retinoid X Receptor beta (RXRb), RXRB (gene 6257) (UniProt P28702); test: ATG_RXRb_TRANS: Attagene TRANS-FACTORIAL HepG2 Assay for human Retinoid X Receptor beta (RXRb) (AID 2283013)
Sequence (P28702 whole entry, looked up): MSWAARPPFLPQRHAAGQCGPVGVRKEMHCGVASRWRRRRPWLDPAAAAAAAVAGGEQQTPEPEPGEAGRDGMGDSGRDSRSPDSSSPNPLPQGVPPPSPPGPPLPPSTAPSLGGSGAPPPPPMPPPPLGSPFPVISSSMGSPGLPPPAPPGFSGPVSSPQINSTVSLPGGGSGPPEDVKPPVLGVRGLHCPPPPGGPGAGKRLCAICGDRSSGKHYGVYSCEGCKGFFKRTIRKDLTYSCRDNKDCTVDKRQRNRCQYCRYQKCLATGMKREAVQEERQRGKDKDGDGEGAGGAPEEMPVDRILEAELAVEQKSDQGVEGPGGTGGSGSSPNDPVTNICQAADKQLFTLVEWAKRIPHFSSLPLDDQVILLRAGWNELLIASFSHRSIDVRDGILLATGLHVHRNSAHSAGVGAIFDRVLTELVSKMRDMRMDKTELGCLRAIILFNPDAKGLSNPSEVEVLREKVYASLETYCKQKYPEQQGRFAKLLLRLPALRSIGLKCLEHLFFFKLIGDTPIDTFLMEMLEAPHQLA
Inconclusive results are not listed. Activity calls are given as the source filed them. The calls were made as follows: active = hit-call score of the fitted dose curve at least 0.9, where 1 is the maximum; inconclusive = response in the unintended direction; inactive = score below 0.9.
Your reply should match one of these outcome classes. true (active), false (inactive)

Some solved cases for reference:
Compound	Answer label
C/C=C(\C)C(=O)OC/C=C(\C)CCC=C(C)C	true
CC(C)N1C(=O)c2ccccc2C1=O	false
CCCCCCC(O)CCOC(C)=O (stereo unspecified)	false
C=CC(C)(CCC=C(C)C)OC(=O)CC (stereo unspecified)	false
CC(C)(C)c1ccc(S)cc1	false

Q. Hello, I am checking results. What call was entered for `COC(=O)c1ccc(C(=O)OC)cc1` ?
A. false

Q. Try this compound next: `N#CCCNCCC#N`
A. false

Q. How about `O=S(=O)(O)CCCN1CCOCC1` ?
A. false

----------
target: Estrogen receptor beta (Homo sapiens) (UniProt Q92731); experiment: OT_ER_ERbERb_0480: Odyssey Thera (OT) 8-hour HEK293T Protein-Complementation Assay for Estrogen Receptor-beta/-beta Homodimer (AID 2283357);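 note: active means signal gain over DMSO baseline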
Sequence (Q92731 whole entry, looked up): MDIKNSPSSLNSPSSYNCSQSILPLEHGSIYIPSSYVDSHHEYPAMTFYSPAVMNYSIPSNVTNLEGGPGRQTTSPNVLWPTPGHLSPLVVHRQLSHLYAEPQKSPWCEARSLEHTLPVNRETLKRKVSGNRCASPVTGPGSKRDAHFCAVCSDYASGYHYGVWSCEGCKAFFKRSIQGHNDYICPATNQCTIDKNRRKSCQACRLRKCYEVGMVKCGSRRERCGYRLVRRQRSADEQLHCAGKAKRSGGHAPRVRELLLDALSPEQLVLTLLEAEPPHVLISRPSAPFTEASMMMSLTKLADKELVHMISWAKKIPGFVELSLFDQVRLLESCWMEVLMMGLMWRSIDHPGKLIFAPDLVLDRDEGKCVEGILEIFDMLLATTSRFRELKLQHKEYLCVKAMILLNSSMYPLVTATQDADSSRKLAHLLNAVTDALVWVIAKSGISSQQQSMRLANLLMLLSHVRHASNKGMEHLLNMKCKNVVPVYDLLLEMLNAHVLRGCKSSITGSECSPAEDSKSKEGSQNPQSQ
Records with an inconclusive call do not appear. The source made the active and inactive calls. How the source made its calls: active means hit-call score of the fitted dose curve at least 0.9, where 1 is the maximum; inconclusive means response in the unintended direction; inactive means score below 0.9.
Select the matching outcome among active, inactive

See these solved cases before continuing.
Compound	Answer label
CCCCC(CC)COCCO (stereo not given)	inactive
C1CCCNCC1	inactive
CCCO[Si](OCCC)(OCCC)OCCC	inactive
CCCc1ccc(O)cc1	active

Here's the next entry for you.
Q. Per the records of this test, what outcome belongs to `CCCCCCCCCOS(=O)(=O)O` ?
A. inactive

----------
read-out: TIMP metallopeptidase inhibitor 1 (TIMP1), TIMP1 (gene 7076); assay: BSK_hDFCGF_TIMP1: BioMAP Diversity Plus: hDFCGF Assay for TIMP metallopeptidase inhibitor 1 (TIMP1) Biomarker Activity (AID 2283062); conditions: primary human foreskin fibroblasts; actives raise or lower the signal
Calls of active or inactive are those of the source. Rule for the calls: active = hit-call score of the fitted dose curve at least 0.9, where 1 is the maximum; inactive = score below 0.9.
The categories you may choose from are y for active, n for inactive

Compound	Answer label
CCC(=O)OCC=Cc1ccccc1	n
O=S(=O)(O)C(F)(F)C(F)(F)OC(F)(F)C(F)(F)F	n
COC(=O)c1ccc(C(=O)OC)cc1	n
c1ccc(OCCOc2ccccc2)cc1	n
CC(C)Cc1ccc(C(C)C(=O)O)cc1 (stereo unspecified)	n

Q. Could you please tell me the result logged for `C=CC(=O)OCC(CO)(COC(=O)C=C)COC(=O)C=C` in this assay?
A. y

Q. Entry OCC(F)(OC(F)(F)C(F)(OC(F)(F)C(F)(F)C(F)(F)F)C(F)(F)F)C(F)(F)F (stereo unspecified) please
A. y

Q. Proceed to `C=C(C)C(=O)OCCC(F)(F)C(F)(F)C(F)(F)C(F)(F)C(F)(F)C(F)(F)C(F)(F)C(F)(F)F`
A. n

Q. Check `O=C(c1ccc(OCCN2CCCCC2)cc1)c1c(-c2ccc(O)cc2)sc2cc(O)ccc12` too.
A. y

Q. Also, `CCCCN(CCO)CCO` please.
A. n

Q. What do we get for `C=C(C)C(N)=O` ?
A. n

Q. Ok, now `CC1(C)[C@H](C=C(Cl)Cl)[C@H]1C(=O)OCc1cccc(Oc2ccccc2)c1`
A. n

Q. Do the same for `OCCN1CCOCC1` please
A. n

----------
test: ATG_ISRE_CIS: Attagene CIS-FACTORIAL HepG2 Assay for human Interferon Regulatory Factor 1 (IRF1) binding to an Interferon-Stimulated Response Element (ISRE) (AID 2282948); details: HepG2 ISRE cis-reporter (Attagene), mRNA transcription readout; actives raise or lower the signal
The source made the active and inactive calls. How the source made its calls: active means hit-call score of the fitted dose curve at least 0.9, where 1 is the maximum; inactive means score below 0.9.
Give your call using only these classes: 1.0 = active, 0.0 = inactive

Molecule	Answer label
CC(C)=CC(=O)O	0.0

Q. Record lookup: outcome of this test for `CCC(=O)OC/C=C(\C)CCC=C(C)C` ?
A. 0.0

Q. // next record `CCCCCCCCCCO[C@@H]1O[C@H](CO)[C@@H](O)[C@H](O)[C@H]1O`
A. 0.0

Q. Cool, now C=CCOCC(O)CO (stereo not given)
A. 0.0

Q. # iterate: C=CC(C)(CCC=C(C)C)OC(=O)CC (stereo not given)
A. 0.0

Q. Try the molecule `Cc1cc(O)c(C)c(C)c1O`
A. 0.0

Q. Again, but for `Cc1cc(O)c2c(c1)C(=O)c1cc(O)cc(O)c1C2=O`
A. 1.0

Q. Same lookup for `CC(C)(C)c1cccc(O)c1` , please.
A. 0.0

Q. Same question for `O=C(O)c1ccco1` please.
A. 0.0

Q. Next up: CC(CCO)CC(C)(C)C (stereo not given)
A. 0.0

Q. What do we get for CCOCC(C)O (stereo not given) ?
A. 0.0

Q. Can you handle `CCCCCC(=O)O[C@]1(C(C)=O)CC[C@H]2[C@@H]3CCC4=CC(=O)CC[C@]4(C)[C@H]3CC[C@@]21C` next?
A. 1.0

Q. Consider next the molecule `OC[C@H]1O[C@@H](O[C@H]2[C@H](O)[C@@H](O)[C@H](O)O[C@@H]2CO)[C@H](O)[C@@H](O)[C@H]1O` in the same way.
A. 0.0

Q. Quick one: `O=C1OCc2ccccc21`
A. 0.0

Q. Then this molecule: `OCCN1CCOCC1`
A. 0.0

----------
read-out: Matrix Metallopeptidase 9 (MMP9), MMP9 (gene 4318); test: BSK_KF3CT_MMP9: BioMAP Diversity Plus: KF3CT Assay for Matrix Metallopeptidase 9 (MMP9) Biomarker Activity (AID 2283074); settings: primary human keratinocytes with fibroblasts; actives raise or lower the signal
Active and inactive are the calls of the source. How the source made its calls: active means hit-call score of the fitted dose curve at least 0.9, where 1 is the maximum; inactive means score below 0.9.
Tick one outcome: active, inactive

Example entries begin here.
Molecule	Answer label
CC1=CC(C)C(C=O)C(C)C1 (stereo not drawn) (tested in a mixture with another compound)	inactive
CCOC(=O)C=Cc1ccccc1	inactive
CCOC(=O)CCCCCCCCC(=O)OCC	inactive
O=S1(=O)CC(Cl)(Cl)C(Cl)(Cl)C1	active
CCCCN(CCO)CCO	inactive

Q. Just curious, what result did `CC(=O)CCC=C(C)CCC=C(C)C` get here?
A. inactive

Q. Now try `C[C@]12CC[C@@H]3c4ccc(O)cc4CC[C@H]3[C@@H]1CC[C@@H]2O` .
A. inactive

Q. Proceed to `CCCCOCCOCCO`
A. inactive

Q. Also `COc1ccccc1NC(=O)CC(C)=O` ?
A. inactive

Q. Here is the next molecule: CC(=O)OC(C)(C)C1CC=C(C)CC1 (stereo not drawn)
A. inactive

Q. Next up: `C=C(C)C(N)=O`
A. inactive

Q. Can you handle `CCCCCCCCCCCCS` next?
A. active

Q. Would you mind doing `CC(C)(C)c1cccc(O)c1` as well?
A. inactive

Q. Request: `CC(=O)OCC=C(C)CCC=C(C)CCC=C(C)C`
A. inactive

Q. Another molecule: `CC=CC(=O)C1=C(C)C=CCC1(C)C`
A. inactive

Q. Next molecule: `O=C1OC2(c3ccc(O)cc3Oc3cc(O)ccc32)c2ccccc21`
A. inactive

Q. Next molecule: `C#C[C@]1(O)CC[C@H]2[C@@H]3CCc4cc(O)ccc4[C@H]3CC[C@@]21C`
A. inactive

Q. Can you handle `c1ccc(Sc2ccccc2)cc1` next?
A. active

Q. Entry to check: `O=C(O)C(F)(F)OC(F)(F)C(F)(F)OC(F)(F)C(F)(F)C(F)(F)C(F)(F)F`
A. inactive

Cited source for all entries: PubChem BioAssay (EPA / NIEHS)
